List of Tm values.
Assay: Differential scanning fluorimetry (DSF) melting temperature of Sgf29 and variants
Type: physicochemical, Homo sapiens
Settings: SYPRO-Orange fluorescence, 25 mM TRIS pH 7.5, 50 mM NaCl, 1 mM DTT, 2.5 μl of 25 μM protein in 25 μl, 20–95°C, 1°C min^-1, ± SD, measured in triplicate
Readout: Tm

D266A: Sgf29 variant, D266 substituted by alanine (protein, left off: 6xHis, end not stated, cleaved, Sgf29 variant, D266 substituted by alanine) RRGVLMTLLQQSAMTLPLWIGKPGDKPPPLCGAIPASGDYVARPGDKVAARVKAVDGDEQWILAEVVSYSHATNKYEVDDIDEEGKERHTLSRRRVIPLPQWKANPETDPEALFQKEQLVLALYPQTTCFYRALIHAPPQRPQDDYSVLFEATSYADGYSPPLNVAQRYVVACKEPKKK    55.8 ± 0.3 °C
D266W: Sgf29 variant, D266 substituted by tryptophan (protein, left off: 6xHis, end not stated, cleaved, Sgf29 variant, D266 substituted by tryptophan) RRGVLMTLLQQSAMTLPLWIGKPGDKPPPLCGAIPASGDYVARPGDKVAARVKAVDGDEQWILAEVVSYSHATNKYEVDDIDEEGKERHTLSRRRVIPLPQWKANPETDPEALFQKEQLVLALYPQTTCFYRALIHAPPQRPQDDYSVLFEWTSYADGYSPPLNVAQRYVVACKEPKKK    55.5 ± 0.1 °C
